- Tested on: Rhodococcus erythropolis PR-4
- test: Treatment of various hydrocarbons: growth and localization of PR-4 in organic solvent/IB medium bilayer culture; further: key: −: growth is not shown or markedly few bacteria grow; ±: growth is shown at interface of organic solvent and aqueous medium; +: growth is shown in organic solvent
- Type: cell-based
- experimental-setup: hydrocarbon 5% (v/v) in IB medium, 28° C., 110 rpm, third day of culturing
quantity-kind: PR-4 growth

Known results for molecules:
molecule | tested-on | PR-4 growth
CCCCCCCC [n-octane] | Rhodococcus erythropolis PR-4 | −
CCCCCCCCCCCCCCCC [n-hexadecane] | Rhodococcus erythropolis PR-4 | +
CCCCCCCCCCCC [n-dodecane] | Rhodococcus erythropolis PR-4 | ±
CCCCCCCCCCCCCC [n-tetradecane] | Rhodococcus erythropolis PR-4 | +
CCCCCC [n-hexane] | Rhodococcus erythropolis PR-4 | −

Look up PR-4 growth: CC(C)CCCC(C)CCCC(C)CCCCC(C)CCCC(C)CCCC(C)C (stereo not shown) [n-squalane, squalane]
+

Look up PR-4 growth: CCCCCCCCCC [n-decane]
±
